Where do these numbers come from? They come from ChEMBL document CHEMBL1123827.

Give measured Ki for each item. Keep answers brief.
system_name: Adrenergic receptor alpha-2 (Rattus norvegicus, UniProt P22086+P19328+P22909)
test_summary: Binding affinity against alpha-2 adrenergic receptor was determined by the displacement of [3H]clonidine from rat brain cortical membranes
Format: cell membranes, Membrane
Numbers only, in nM.

Record excerpt, results attached:
// field: Ki; key: "Cn1c(CC2=NCCN2)cc2ccccc21" ; value = 46.7

// field: Ki; key: "C[C@@H]1Cc2ccccc2N(C)[C@@H]1C1=NCCN1" ; value = 719

// field: Ki; key: "CN1c2ccccc2C[C@@]1(C)C1=NCCN1" ; value = 3.4

// field: Ki; key: CN1c2c(Cl)cccc2CC1C1=NCCN1 (configuration not stated) ; value = 0.72

Further cases:
// field: Ki; key: CN1c2ccc(Cl)cc2CC1C1=NCCN1 (configuration not stated) ; value = 1.9
